SYSTEM_UNDER_TEST: FXR (Homo sapiens, UniProt Q96RI1)
Construct: 5 μL of 20 nM FXR-LBD Complete Coregulator buffer G; purchased ThermoFisher PV4833
Sequence (Q96RI1 262-486 limits assumed): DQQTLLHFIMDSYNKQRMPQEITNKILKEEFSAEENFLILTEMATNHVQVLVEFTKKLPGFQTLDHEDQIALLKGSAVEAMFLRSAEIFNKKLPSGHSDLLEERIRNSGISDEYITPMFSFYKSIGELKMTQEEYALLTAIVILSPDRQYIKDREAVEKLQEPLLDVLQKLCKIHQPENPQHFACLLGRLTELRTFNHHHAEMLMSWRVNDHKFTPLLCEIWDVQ
TEST_METHOD_NOTES: FXR antagonist screening by TR-FRET (LanthaScreen TR-FRET FXR co-activation assay kit)
Assay type: biochemical
TEST_PARAMETERS: Table 1.2, FXR antagonistic activity; TR-FRET with CDCA; geometric means of at least two independent runs
PROPERTY_LABEL: IC50

Consider the reported IC50 for these compounds:
SMILES_TEXT	IC50
CCOC(=O)c1cc2cc(S(=O)(=O)N(CCc3ccccc3)c3ccccc3N3CCN(C(=O)c4sccc4Br)CC3)ccc2s1	50 to 100 µM
Cc1ccc(C(=O)N2CCN(c3ccccc3N(CCc3ccccc3)S(=O)(=O)c3ccc4oc(C(=O)O)c(C)c4c3)CC2)s1	0.1 to 10 µM
Cc1c(C(=O)O)oc2ccc(S(=O)(=O)N(CCc3ccccc3)c3ccccc3N3CCN(C(=O)c4ccc[nH]4)CC3)cc12	0.1 to 10 µM
CCOC(=O)c1oc2ccc(S(=O)(=O)N(CCc3ccccc3)c3ccccc3N3CCN(C(=O)c4ccccc4OC)CC3)cc2c1C	50 to 100 µM
Cc1c(C(=O)O)sc2ccc(S(=O)(=O)N(CCC3CCCCC3)c3ccccc3N3CCN(C(=O)c4sccc4Br)CC3)cc12	0.1 to 10 µM
Cc1c(C(=O)O)oc2ccc(S(=O)(=O)N(CCc3ccccc3)c3ccccc3N3CCN(C(=O)c4cc[nH]n4)CC3)cc12	0.1 to 10 µM
CCOC(=O)c1oc2ccc(S(=O)(=O)N(CCc3ccccc3)c3ccccc3N3CCN(C(=O)c4ccc[nH]4)CC3)cc2c1C	50 to 100 µM
Cc1ccc(C)c(C(=O)N2CCN(c3ccccc3N(CCc3ccccc3)S(=O)(=O)c3ccc4oc(C(=O)O)c(C)c4c3)CC2)c1	0.1 to 10 µM

query: Consider the compound `CCOC(=O)c1sc2ccc(S(=O)(=O)N(CCC3CCCCC3)c3ccccc3N3CCN(C(=O)c4sccc4Br)CC3)cc2c1C` and give its measured IC50.
result: 50 to 100 µM

query: Consider the compound `CCOC(=O)c1oc2ccc(S(=O)(=O)N(CCc3ccccc3)c3ccccc3N3CCN(C(=O)c4ccc(Br)s4)CC3)cc2c1C` and give its measured IC50.
result: 50 to 100 µM

query: Consider the compound `CCOC(=O)c1oc2ccc(S(=O)(=O)N(CCc3ccccc3)c3ccccc3N3CC4(CCN(C(=O)c5sccc5Br)CC4)C3)cc2c1C` and give its measured IC50.
result: 50 to 100 µM

query: Consider the compound `CCOC(=O)c1oc2ccc(S(=O)(=O)N(CCc3ccccc3)c3ccccc3N3CCN(C(=O)c4ccc(NC(=O)OC(C)(C)C)cc4)CC3)cc2c1C` and give its measured IC50.
result: 50 to 100 µM

query: Consider the compound `CCC(CC)C(=O)N1CCN(c2ccccc2N(CCc2ccccc2)S(=O)(=O)c2ccc3oc(C(=O)O)c(C)c3c2)CC1` and give its measured IC50.
result: 0.1 to 10 µM

###

SYSTEM_UNDER_TEST: FXR (Homo sapiens)
Construct: 5 μL of 20 nM FXR-LBD Complete Coregulator buffer G; purchased ThermoFisher PV4833
TEST_METHOD_NOTES: FXR antagonist screening by TR-FRET (LanthaScreen TR-FRET FXR co-activation assay kit)
Assay type: biochemical
TEST_PARAMETERS: Table 1.1, FXR antagonistic activity; TR-FRET with CDCA; geometric means of at least two independent runs
pIC50: −log10 of the molar value.
Catalogue of pIC50 values

Consider the reported pIC50 for these molecules:
SMILES_TEXT	pIC50
CCOC(=O)c1oc2ccc(S(=O)(=O)N(CCc3ccccc3)Cc3ccc(C(=O)c4ccccc4)cc3)cc2c1C	4.00 to 4.30
Cc1c(C(=O)O)oc2ccc(S(=O)(=O)N(CCc3ccccc3)Cc3ccccc3[N+](=O)[O-])cc12	4.30 to 5.00
Cc1c(C(=O)O)oc2ccc(S(=O)(=O)N(CCc3ccccc3)c3ccccc3N3CCN(C(=O)N(C)C)CC3)cc12	4.30 to 5.00
CCOC(=O)c1oc2ccc(S(=O)(=O)N(CCc3ccccc3)Cc3ccc(N4CCN(C(=O)OC(C)(C)C)CC4)cc3)cc2c1C	4.00 to 4.30
CCOC(=O)c1oc2ccc(S(=O)(=O)N(CCc3ccccc3)Cc3c(F)cc(Cl)cc3F)cc2c1C	4.00 to 4.30
CCOC(=O)c1oc2ccc(S(=O)(=O)N(CCc3ccccc3)Cc3ccccc3C(F)(F)F)cc2c1C	4.00 to 4.30

query: Consider the molecule `Cc1c(C(=O)O)oc2ccc(S(=O)(=O)N(CCc3ccccc3)Cc3ccc(-c4ccccc4C#N)cc3)cc12` and give its measured pIC50.
result: 4.30 to 5.00

query: Consider the molecule `Cc1cccc(CN(CCc2ccccc2)S(=O)(=O)c2ccc3oc(C(=O)O)c(C)c3c2)c1` and give its measured pIC50.
result: 4.30 to 5.00

###

SYSTEM_UNDER_TEST: FXR (Homo sapiens, UniProt Q96RI1)
Construct: 5 μL of 20 nM FXR-LBD Complete Coregulator buffer G; purchased ThermoFisher PV4833
TEST_METHOD_NOTES: FXR antagonist screening by TR-FRET (LanthaScreen TR-FRET FXR co-activation assay kit)
Assay type: biochemical
TEST_PARAMETERS: Table 1.1, FXR antagonistic activity; TR-FRET with CDCA; geometric means of at least two independent runs
pIC50: −log10 of the molar value.
PROPERTY_LABEL: pIC50

Consider the reported pIC50 for these compounds:
SMILES_TEXT	SYSTEM_UNDER_TEST	OBS_VALUE
Cc1c(C(=O)O)oc2ccc(S(=O)(=O)N(CCc3ccccc3)Cc3ccc(C(C)(C)C)cc3)cc12	FXR (Homo sapiens, UniProt Q96RI1)	4.30 to 5.00
Cc1c(C(=O)O)oc2ccc(S(=O)(=O)N(CCc3ccccc3)Cc3ccccc3Cl)cc12	FXR (Homo sapiens, UniProt Q96RI1)	4.30 to 5.00

query: Consider the compound `CCOC(=O)c1oc2ccc(S(=O)(=O)N(CCc3ccccc3)c3ccc(CN4CCN(C(=O)OC(C)(C)C)CC4)cc3)cc2c1C` and give its measured pIC50.
result: 4.00 to 4.30

query: Consider the compound `CCOC(=O)c1oc2ccc(S(=O)(=O)N(CCc3ccccc3)Cc3ccc(/C=C/C(=O)OC)cc3)cc2c1C` and give its measured pIC50.
result: 4.00 to 4.30

query: Consider the compound `CCOC(=O)c1oc2ccc(S(=O)(=O)N(CCc3ccccc3)Cc3ccc(Cl)cc3)cc2c1C` and give its measured pIC50.
result: 4.00 to 4.30

###

Catalogue of melting point values

Consider the reported melting point for these compounds:
SMILES_TEXT	PROPERTY_LABEL	OBS_VALUE
Cc1c(C(=O)O)oc2ccc(S(=O)(=O)N(CCc3ccccc3)c3ccccc3N3CCNCC3)cc12	melting point	172 to 173 °C
Cc1c(C(=O)O)oc2ccc(S(=O)(=O)N(CCc3ccccc3)Cc3ccc(Cl)cc3Cl)cc12	melting point	177 to 178 °C
Cc1c(C(=O)O)oc2ccc(S(=O)(=O)N(CCc3ccccc3)Cc3cccc([N+](=O)[O-])c3)cc12	melting point	> 380 °C (dec.)

The record that follows has no melting point shown yet.
query: Consider the compound `Cc1c(C(=O)O)oc2ccc(S(=O)(=O)N(CCc3ccccc3)c3ccc(N4CCN(C(=O)OC(C)(C)C)CC4)cc3)cc12` and give its measured melting point.
result: > 380 °C (dec.)

###

SYSTEM_UNDER_TEST: FXR (Homo sapiens, UniProt Q96RI1)
Construct: 5 μL of 20 nM FXR-LBD Complete Coregulator buffer G; purchased ThermoFisher PV4833
TEST_METHOD_NOTES: FXR antagonist screening by TR-FRET (LanthaScreen TR-FRET FXR co-activation assay kit)
Type: biochemical
TEST_PARAMETERS: Table 1.2, FXR antagonistic activity; TR-FRET with CDCA; geometric means of at least two independent runs
Catalogue of IC50 values

MOLECULE	IC50
CCOC(=O)c1oc2ccc(S(=O)(=O)N(CCc3ccccc3)c3ccccc3N3CCN(C(=O)c4ccno4)CC3)cc2c1C	50 to 100 µM

query: Consider the molecule `CCOC(=O)c1oc2ccc(S(=O)(=O)N(CCc3ccccc3)c3ccccc3N3CCN(C(=O)c4cc(C)cs4)CC3)cc2c1C` and give its measured IC50.
result: 50 to 100 µM

query: Consider the molecule `Cc1c(C(=O)O)oc2ccc(S(=O)(=O)N(CCc3ccccc3)c3ccccc3N3CCN(C(=O)c4ccc(Br)s4)CC3)cc12` and give its measured IC50.
result: 0.1 to 10 µM

###

Catalogue of IC50 values
SYSTEM_UNDER_TEST: FXR (Homo sapiens)
Construct: 5 μL of 20 nM FXR-LBD Complete Coregulator buffer G; purchased ThermoFisher PV4833
TEST_METHOD_NOTES: FXR antagonist screening by TR-FRET (LanthaScreen TR-FRET FXR co-activation assay kit)
Type: biochemical
TEST_PARAMETERS: Table 1.1, FXR antagonistic activity; TR-FRET with CDCA; geometric means of at least two independent runs

SMILES_TEXT	IC50
CCOC(=O)c1oc2ccc(S(=O)(=O)N(CCc3ccccc3)Cc3cccc([N+](=O)[O-])c3)cc2c1C	50 to 100 µM
CCCOC(=O)N1CCN(c2ccc(N(CCc3ccccc3)S(=O)(=O)c3ccc4oc(C(=O)OCC)c(C)c4c3)cc2)CC1	50 to 100 µM
Cc1c(C(=O)O)oc2ccc(S(=O)(=O)N(CCc3ccccc3)c3ccccc3N3CCN(C(=O)OC(C)(C)C)CC3)cc12	0.1 to 10 µM
CCOC(=O)c1oc2ccc(S(=O)(=O)N(CCc3ccccc3)CCc3ccccc3)cc2c1C	50 to 100 µM

query: Observed IC50 on FXR (Homo sapiens) for `CCOC(=O)c1oc2ccc(S(=O)(=O)N(CCc3ccccc3)Cc3ccc(OC(F)(F)F)cc3)cc2c1C` , please.
result: 50 to 100 µM

query: Observed IC50 on FXR (Homo sapiens) for `Cc1c(C(=O)O)oc2ccc(S(=O)(=O)N(CCc3ccccc3)Cc3ccccc3F)cc12` , please.
result: 0.1 to 10 µM

query: Observed IC50 on FXR (Homo sapiens) for `CCCOC(=O)N1CCN(c2ccc(N(CCc3ccccc3)S(=O)(=O)c3ccc4oc(C(=O)O)c(C)c4c3)cc2)CC1` , please.
result: 10 to 50 µM

query: Observed IC50 on FXR (Homo sapiens) for `CCOC(=O)c1oc2ccc(S(=O)(=O)N(CCc3ccccc3)Cc3cccc(-c4ccccc4)c3)cc2c1C` , please.
result: 50 to 100 µM

query: Observed IC50 on FXR (Homo sapiens) for `Cc1c(C(=O)O)oc2ccc(S(=O)(=O)N(CCc3ccccc3)Cc3ccc(N4CCN(C(=O)OC(C)(C)C)CC4)cc3)cc12` , please.
result: 10 to 50 µM
